- System: HT29 colon
- assay-explanation: NCI tumour cell line growth inhibition, 48 h
Provide the reported TGI of each item.

I have this compound here, N#Cc1c(Nc2ccccc2)[n+]([O-])c2ccc(Cl)cc2[n+]1[O-] , and I need its recorded TGI.
8.22 µM

I have this compound here, CC(=O)NC1=CC(=O)C=C(Cl)C1=O , and I need its recorded TGI.
> 100 µM

I have this compound here, CC(CNc1nc(Nc2ccc(Cl)c(Cl)c2)nc(C(Cl)(Cl)Cl)n1)N(C)C (stereo unspecified) , and I need its recorded TGI.
3.11 µM

I have this compound here, CC(C)(C)OC(=O)CC(NC(=O)OC(C)(C)C)C(=O)Oc1ccc([N+](=O)[O-])cc1 (stereo unspecified) , and I need its recorded TGI.
> 100 µM

I have this compound here, O=C1Cc2c([nH]c3cc(Br)ccc23)-c2ccccc2N1 , and I need its recorded TGI.
37.2 µM

I have this compound here, Cc1c(C=C(C#N)C#N)c(=O)n(C)c(=O)n1C , and I need its recorded TGI.
> 100 µM

I have this compound here, S=c1sscc1N1CCSc2ssc(=S)c21 , and I need its recorded TGI.
> 100 µM

I have this compound here, C/C=C1/C(=O)O[C@]23C=C[C@@H]4C(C(=O)OC)=CO[C@H](O[C@@H]12)[C@@H]43 , and I need its recorded TGI.
9.06 µM

I have this compound here, CCOC(=O)/C=C1\C[C@H](NC(=O)OCc2ccccc2)C(=O)N1CC(=O)OCC , and I need its recorded TGI.
> 100 µM

I have this compound here, Nc1ncnc2c1ncn2C1OC(C(=O)OCCO)C(O)C1O (stereo unspecified) , and I need its recorded TGI.
> 100 µM

I have this compound here, C(=NCCN=Cc1cccc2ccccc12)c1cccc2ccccc12 , and I need its recorded TGI.
> 100 µM

I have this compound here, O=C1NC(=O)C2(CCc3ccc(N(CCCl)CCCl)cc32)N1 (stereo unspecified) , and I need its recorded TGI.
59.3 µM

I have this compound here, OCC(O)C(OC1OC(CO)C(O)C(O)C1O)c1nn(-c2ccc(Cl)cc2)c2nc3cc(Cl)ccc3nc12 (stereo unspecified) , and I need its recorded TGI.
> 100 µM

I have this compound here, O=C1OC(=O)C2C1C1C(c3ccccc3)=C(c3ccccc3)C2(O)C2C(=O)OC(=O)C12 (stereo unspecified) , and I need its recorded TGI.
> 100 µM

I have this compound here, Cc1cccc2c(=O)c3c(O)cc4c(c3n(C)c12)C=CC(C)(C)O4 , and I need its recorded TGI.
36.8 µM

I have this compound here, CC1(C)N=C(N)N=C(N)N1c1ccc(CCC(=O)Nc2cccc(S(=O)(=O)F)c2)cc1 , and I need its recorded TGI.
> 100 µM

I have this compound here, COc1ccc2oc3c(ccc[n+]3C)c(=O)c2c1 , and I need its recorded TGI.
> 100 µM

I have this compound here, C=CC(=O)Nc1cccc(Nc2nc(Nc3ccc(N4CCN(C(C)=O)CC4)cc3OC)ncc2C(F)(F)F)c1 , and I need its recorded TGI.
> 27.1 µM

I have this compound here, CNCC1CCn2c(c(C3=C(c4cn(C)c5ccccc45)C(=O)NC3=O)c3ccccc32)C1 (stereo unspecified) , and I need its recorded TGI.
8.18 µM

I have this compound here, Cc1c(C(=O)Nc2ccc(Cl)cc2)nc(N)nc1-c1cccc(Cl)c1 , and I need its recorded TGI.
> 100 µM

I have this compound here, Nc1nc(N)c(-c2ccc(Cl)cc2)c(/C=C/c2ccc([N+](=O)[O-])cc2)n1 , and I need its recorded TGI.
> 100 µM
